property: melting point

Before answering, review these 4 worked examples.
smiles_input=OCc1cn(Cc2csc(-c3ccc(Cl)cc3)n2)nn1 result="152 to 154 °C"
smiles_input=Clc1ccc(-c2nc(Cn3cc(C4CC4)nn3)cs2)cc1 result="109 to 111 °C"
smiles_input=OCCCCc1cn(Cc2csc(-c3ccc(Cl)cc3)n2)nn1 result="157 to 159 °C"
smiles_input=CCCCCc1cn(Cc2csc(-c3ccc(Cl)cc3)n2)nn1 result="88 to 90 °C"

Attention now shifts to the item below.
Answer with reported melting point of "Clc1ccc(-c2nc(Cn3nncc3-c3ccccc3)cs2)cc1" 175 to 177 °C

----------
melting point values, listed per item

A selection of reference data follows.
compound=CCOC(=O)c1cn(Cc2csc(-c3ccc(Cl)cc3)n2)nn1 result="149 to 151 °C"
compound=CCCCc1cn(Cc2csc(-c3ccc(Cl)cc3)n2)nn1 result="98 to 99 °C"

Return melting point (reported value) for this compound: Clc1ccc(-c2nc(Cn3cc(COC4CCCCO4)nn3)cs2)cc1 (stereo not drawn) 92 to 94 °C
